Reported IC50 is given for each of the following compounds.
# System: SDMA in HAP1 MTAP-deleted (MTAP-null) cell line (PRMT5 inhibition)
# ASSAY_PROTOCOL: SDMA in-cell western assay, HAP1 MTAP-deleted cell line
# MEASUREMENT_SETUP: Homo sapiens, HAP1, read-out: Hap1 MTAP deleted IC50
ATTRIBUTE_MEASURED: IC50

Cc1ccnc(CN(Cc2ccccc2)C(=O)C(=O)Nc2cnc(N)c3cn[nH]c23)c1: < 5 nM
CCc1cc(NC(=O)C(=O)N(Cc2ccc(C(F)(F)F)cn2)C2CCC(C)c3ccccc32)cnc1N (stereo not drawn): 5 to 50 nM
CC[C@@H](C)CN(Cc1ccccc1C)C(=O)C(=O)Nc1cnc(N)c2cn[nH]c12: < 5 nM
Cc1ccccc1CN(Cc1ccc(Cl)cc1)C(=O)C(=O)Nc1cnc(N)c2cn[nH]c12: < 5 nM
Cc1c(CN(Cc2ccccn2)C(=O)C(=O)Nc2cnc(N)c3cn[nH]c23)cccc1N(C)C: < 5 nM
CCN(Cc1ccc(C(F)(F)F)cc1C)C(=O)C(=O)Nc1cnc(N)c2cn[nH]c12: < 5 nM
Nc1ncc(NC(=O)C(=O)N(Cc2ccccc2)Cc2cccnc2)c2[nH]ncc12: < 5 nM
Cc1cc(NC(=O)C(=O)N(Cc2ccc(C(F)(F)F)cn2)[C@@H]2CC[C@@H](C)c3ccccc32)cnc1N (stereo in doubt): < 5 nM
C[C@@H](c1ccc(C(F)(F)F)cc1C(F)(F)F)N(C)C(=O)C(=O)Nc1cnc(N)c2cn[nH]c12: 5 to 50 nM
Cc1ccccc1CN(C(=O)C(=O)Nc1cnc(N)c2cn[nH]c12)[C@H](C)C(C)C: < 5 nM
Nc1ncc(NC(=O)C(=O)N(Cc2ccccc2)C2CCCc3ccccc32)c2[nH]ncc12 (racemic): < 5 nM
CCN(C(=O)C(=O)Nc1cnc(N)c2cn[nH]c12)[C@@H](C)c1ccc(C(F)(F)F)cc1C: < 5 nM
Nc1ncc(NC(=O)C(=O)N(Cc2ccc(C(F)(F)F)cn2)[C@@H]2CCc3ccccc32)c2[nH]ncc12: < 5 nM
CC1CCC(N(Cc2ccc(C(F)(F)F)cn2)C(=O)C(=O)Nc2ccn3ccnc3c2)c2ccccc21 (stereo not drawn): 5 to 50 nM
COC[C@@H](C1CC1)N(Cc1ccc(C(F)(F)F)cn1)C(=O)C(=O)Nc1cnc(N)c2cn[nH]c12: < 5 nM

----------
# Tested on: HAP1 MTAP-deleted cell line
# ASSAY_PROTOCOL: Viability assay, HAP1 MTAP-deleted cell line
# Type: cell-based
# MEASUREMENT_SETUP: Homo sapiens; viability assay, HAP1 MTAP-deleted cell line; read-out: Hap1 MTAP deleted viability IC50
Reported IC50 is given for each of the following compounds.
ATTRIBUTE_MEASURED: IC50

C[C@H](c1ccc(C(F)(F)C(F)(F)F)cc1)N(C)C(=O)C(=O)Nc1cnc(N)c2c1cnn2C: < 100 nM
CCc1cc(NC(=O)C(=O)N(Cc2ccc(C(F)(F)F)cn2)[C@@H](COC)C2CC2)cnc1N: 100 to 1000 nM
Cc1ccnc(CN(Cc2ccccc2)C(=O)C(=O)Nc2cnc(N)c3cn[nH]c23)c1: < 100 nM
Nc1ncc(NC(=O)C(=O)N(Cc2ccc(C(F)(F)F)cn2)Cc2ncccn2)c2[nH]ncc12: < 100 nM
CCN(Cc1ccc(C(F)(F)F)cc1C)C(=O)C(=O)Nc1cnc(N)c2cn[nH]c12: < 100 nM
Cc1cccnc1CN(Cc1ccccc1)C(=O)C(=O)Nc1cnc(N)c2cn[nH]c12: < 100 nM

----------
Reported pIC50 is given for each of the following compounds.
# System: SDMA in HAP1 MTAP-intact cell line (PRMT5 inhibition)
# ASSAY_PROTOCOL: SDMA in-cell western assay, HAP1 MTAP-intact cell line
# MEASUREMENT_SETUP: Homo sapiens, HAP1, read-out: Hap1 MTAP intact IC50
pIC50: −log10 of the molar value.
ATTRIBUTE_MEASURED: pIC50

COC[C@@H](C1CC1)N(Cc1ccc(C(F)(F)F)cn1)C(=O)C(=O)Nc1cnc(N)c(C)c1: 7.30 to 8.30
Cc1cc(F)cnc1CN(Cc1ccc(F)cn1)C(=O)C(=O)Nc1cnc(N)c2cn[nH]c12: 7.30 to 8.30
CCN(Cc1ccc(S(F)(F)(F)(F)F)cc1)C(=O)C(=O)Nc1cnc(N)c2cn[nH]c12: 7.30 to 8.30
Cc1ccccc1CN(CC(C)C)C(=O)C(=O)Nc1cnc(N)c2cn[nH]c12: < 7.30
CC(C)CN(C(=O)C(=O)Nc1cnc(N)c2cn[nH]c12)[C@@H](C)c1ccccc1: < 7.30
C[C@@H](c1ccc(C(F)(F)F)cn1)N(C)C(=O)C(=O)Nc1cnc(N)c2cn[nH]c12: < 7.30
CC(c1ccc(C(F)(F)F)cn1)N(C)C(=O)C(=O)Nc1cnc(N)c2cn[nH]c12 (racemic): < 7.30
CC(C)CN(Cc1ccccc1)C(=O)C(=O)Nc1cnc(N)c2cn[nH]c12: < 7.30

----------
# Tested on: SDMA in HAP1 MTAP-deleted (MTAP-null) cell line (PRMT5 inhibition)
# ASSAY_PROTOCOL: SDMA in-cell western assay, HAP1 MTAP-deleted cell line
# MEASUREMENT_SETUP: Homo sapiens, HAP1, read-out: Hap1 MTAP deleted IC90
ATTRIBUTE_MEASURED: IC90

CCC(c1ccc(C(F)(F)F)cn1)N(C)C(=O)C(=O)Nc1cnc(N)c2cn[nH]c12 (stereo not shown): 0.075 to 0.125 µM
CC1CCC(N(Cc2ccc(C(F)(F)F)cn2)C(=O)C(=O)Nc2cncc3cn[nH]c23)c2ccccc21 (stereo not shown): > 0.125 µM
Nc1ncc(NC(=O)C(=O)N(Cc2ccc(C(F)(F)F)cn2)Cc2ncccn2)c2[nH]ncc12: < 0.075 µM
Nc1ncc(NC(=O)C(=O)N(Cc2ccccc2)Cc2ccccc2C(F)(F)F)c2[nH]ncc12: < 0.075 µM

----------
# Tested on: SDMA in HAP1 MTAP-intact cell line (PRMT5 inhibition)
# ASSAY_PROTOCOL: SDMA in-cell western assay, HAP1 MTAP-intact cell line
# MEASUREMENT_SETUP: Homo sapiens, HAP1, read-out: Hap1 MTAP intact IC50
pIC50: −log10 of the molar value.
ATTRIBUTE_MEASURED: pIC50

Nc1ncc(NC(=O)C(=O)N(Cc2ccccc2)C2CCOc3ccccc32)c2[nH]ncc12 (stereo not shown) [Compound 97]: 7.30 to 8.30
CCN(Cc1ccc(C(F)(F)F)cn1)C(=O)C(=O)Nc1cnc(N)c2cn[nH]c12 [Compound 11]: < 7.30
CCN(C(=O)C(=O)Nc1cnc(N)c2cn[nH]c12)[C@@H](C)c1ccc(C(F)(F)F)cc1C [Compound 57]: < 7.30
Nc1ncc(NC(=O)C(=O)N(Cc2ccccn2)Cc2ccc(F)cc2Cl)c2[nH]ncc12 [Compound 77]: 7.30 to 8.30
Nc1ncc(NC(=O)C(=O)N(Cc2ccc(C(F)(F)F)cc2)C2CCC2)c2[nH]ncc12 [Compound 118]: < 7.30
Cc1ccccc1CN(CC1CC1)C(=O)C(=O)Nc1cnc(N)c2cn[nH]c12 [Compound 155]: < 7.30
Cc1cc(NC(=O)C(=O)N(Cc2ccc(C(F)(F)F)cn2)C(C)c2ncccn2)cnc1N (racemic) [Compound 16]: 7.30 to 8.30
Cc1ccc(CN(Cc2ccccc2)C(=O)C(=O)Nc2cnc(N)c3cn[nH]c23)nc1 [Compound 179]: 7.30 to 8.30
Cc1cc(C(F)(F)F)ccc1CN(C)C(=O)C(=O)Nc1cnc(N)c2cn[nH]c12 [Compound 170]: < 7.30
Nc1ncc(NC(=O)C(=O)N(Cc2ccccc2)Cc2cccnc2)c2[nH]ncc12 [Compound 29]: < 7.30
Cc1cc(Cl)ccc1CN(Cc1ccccc1)C(=O)C(=O)Nc1cnc(N)c2cn[nH]c12 [Compound 186]: 7.30 to 8.30
CC(c1ccccc1)N(Cc1ccccn1)C(=O)C(=O)Nc1cnc(N)c2cn[nH]c12 (stereo not shown) [Compound 174]: 7.30 to 8.30
CCN(Cc1ccc(C(F)(F)F)cc1C)C(=O)C(=O)Nc1cnc(N)c2cn[nH]c12 [Compound 104]: < 7.30
Nc1ncc(NC(=O)C(=O)N(Cc2ccccc2)Cc2ccncc2)c2[nH]ncc12 [Compound 27]: < 7.30
CCN(Cc1ccc(C(F)(F)C(F)(F)F)cc1C)C(=O)C(=O)Nc1cnc(N)c2cn[nH]c12 [Compound 99]: < 7.30
Nc1ncc(NC(=O)C(=O)N(CCC(F)(F)F)Cc2ccccc2)c2[nH]ncc12 [Compound 102]: < 7.30

----------
# System: SDMA in HAP1 MTAP-intact cell line (PRMT5 inhibition)
# ASSAY_PROTOCOL: SDMA in-cell western assay, HAP1 MTAP-intact cell line
# MEASUREMENT_SETUP: Homo sapiens, HAP1, read-out: Hap1 MTAP intact IC50
ATTRIBUTE_MEASURED: IC50

CC[C@@H](C)CN(Cc1ccc(C(F)(F)F)cn1)C(=O)C(=O)Nc1cnc(N)c2cn[nH]c12 [Compound 75]: 5 to 50 nM
CNc1cccc(CN(Cc2ccccc2)C(=O)C(=O)Nc2cnc(N)c3cn[nH]c23)c1 [Compound 93]: 5 to 50 nM
Cc1cc(F)ccc1CN(CC(C)C)C(=O)C(=O)Nc1cnc(N)c2cn[nH]c12 [Compound 71]: > 50 nM
CC(c1ccccn1)N(Cc1ccccc1)C(=O)C(=O)Nc1cnc(N)c2cn[nH]c12 (centres unmarked) [Compound 139]: 5 to 50 nM
Cc1cc(F)ccc1CN(Cc1ccccc1)C(=O)C(=O)Nc1cnc(N)c2cn[nH]c12 [Compound 149]: 5 to 50 nM
CC[C@H](C)CN(Cc1ccccc1C)C(=O)C(=O)Nc1cnc(N)c2cn[nH]c12 [Compound 60]: 5 to 50 nM
CC[C@H](C)CN(Cc1ccc(C(F)(F)F)cn1)C(=O)C(=O)Nc1cnc(N)c2cn[nH]c12 [Compound 64]: < 5 nM
Nc1ncc(NC(=O)C(=O)N(Cc2ccccc2)CC2CCCCC2)c2[nH]ncc12 [Compound 175]: > 50 nM
